biological target: Aminopeptidase N (Homo sapiens); experiment: Inhibition of human recombinant APN expressed in HEK293 cells
Sequence (P15144 whole entry): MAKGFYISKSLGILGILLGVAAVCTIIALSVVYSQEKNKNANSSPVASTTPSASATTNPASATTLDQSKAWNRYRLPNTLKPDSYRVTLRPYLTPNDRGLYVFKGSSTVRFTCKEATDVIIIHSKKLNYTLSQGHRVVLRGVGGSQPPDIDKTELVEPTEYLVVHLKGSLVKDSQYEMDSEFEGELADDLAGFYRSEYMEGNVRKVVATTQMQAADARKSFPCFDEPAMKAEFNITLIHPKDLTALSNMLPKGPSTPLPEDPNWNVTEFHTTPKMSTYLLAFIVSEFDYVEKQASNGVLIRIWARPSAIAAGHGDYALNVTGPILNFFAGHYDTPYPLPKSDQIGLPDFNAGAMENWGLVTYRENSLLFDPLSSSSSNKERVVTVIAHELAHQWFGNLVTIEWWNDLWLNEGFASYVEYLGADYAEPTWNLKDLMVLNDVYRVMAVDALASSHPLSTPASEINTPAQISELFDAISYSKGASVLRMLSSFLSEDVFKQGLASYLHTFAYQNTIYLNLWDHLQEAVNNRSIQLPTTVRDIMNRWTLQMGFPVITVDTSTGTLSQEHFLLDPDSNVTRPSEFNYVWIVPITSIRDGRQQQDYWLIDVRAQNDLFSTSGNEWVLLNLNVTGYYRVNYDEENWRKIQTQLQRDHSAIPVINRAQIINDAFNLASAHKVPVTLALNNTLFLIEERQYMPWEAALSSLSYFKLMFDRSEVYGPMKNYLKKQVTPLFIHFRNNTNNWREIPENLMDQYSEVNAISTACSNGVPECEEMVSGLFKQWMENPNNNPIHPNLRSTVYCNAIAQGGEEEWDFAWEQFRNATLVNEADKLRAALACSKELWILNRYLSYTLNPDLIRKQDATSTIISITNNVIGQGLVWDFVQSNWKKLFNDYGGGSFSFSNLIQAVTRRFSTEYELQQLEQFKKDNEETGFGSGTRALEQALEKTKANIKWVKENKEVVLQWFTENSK
pKi: −log10 of the molar value.
MEASUREMENT TYPE: pKi

MOL SMILES	READOUT VALUE
CC[C@@H](C)[C@H](NC(=O)c1cc(N)cc(Cc2ccc(O)cc2)c1)C(=O)NCc1ccccc1CC(=O)O	< 4.00

Moving on to another molecule below.
Request: Look up and report measured pKi (Aminopeptidase N (Homo sapiens)) for the following molecule: Nc1cc(Cc2ccc(O)cc2)cc(C(=O)NCc2ccccc2CC(=O)O)c1
Result: < 4.00

Source of measurements: ChEMBL document CHEMBL1155005
